Recorded below: pKi, system Peptidyl-prolyl cis-trans isomerase FKBP1A (Homo sapiens, UniProt P62942).
By convention, pKi is the negative base-10 log of a molar concentration.

A selection of reference data follows.
1. C=C[C@H]1CN(CCOC)C(=O)[C@@H]2CCC[C@H]1N2S(=O)(=O)c1cc(Cl)cc(Cl)c1	7.73
2. C=C[C@H]1CN(CCCCOC)C(=O)[C@@H]2CCC[C@H]1N2S(=O)(=O)c1cc(Cl)cc(Cl)c1	6.60
3. COC[C@H]1CN(Cc2ccccn2)C(=O)[C@@H]2CCC[C@H]1N2S(=O)(=O)c1cc(Cl)cc(Cl)c1	9.35

Moving on to another compound below.
Problem: Which measured pKi belongs to `C=C[C@H]1CN(CCOCC)C(=O)[C@@H]2CCC[C@H]1N2S(=O)(=O)c1cc(Cl)cc(Cl)c1` , tested on Peptidyl-prolyl cis-trans isomerase FKBP1A (Homo sapiens, UniProt P62942)?
Result: 7.68

* * *

Recorded below: Ki, system Peptidyl-prolyl cis-trans isomerase FKBP1A (Homo sapiens, UniProt P62942).

Problem: Reported Ki for `C=C[C@H]1CN(C)C(=O)[C@@H]2CCC[C@H]1N2S(=O)(=O)c1cc(Cl)cc(Cl)c1` : what is it?
Result: 49 to 80 nM

Problem: Reported Ki for `C=C[C@H]1CN(CCCOC)C(=O)[C@@H]2CCC[C@H]1N2S(=O)(=O)c1cc(Cl)cc(Cl)c1` : what is it?
Result: 143 nM

Problem: Reported Ki for `C=C[C@H]1CN(CC(=O)O)C(=O)[C@@H]2CCC[C@H]1N2S(=O)(=O)c1cc(Cl)cc(Cl)c1` : what is it?
Result: 7 to 25 nM

Problem: Reported Ki for `C#CCN1C[C@H](C=C)[C@H]2CCC[C@@H](C1=O)N2S(=O)(=O)c1cc(Cl)cc(Cl)c1` : what is it?
Result: 49 to 80 nM

Problem: Reported Ki for `C=C[C@H]1CN(CC(=O)OCC)C(=O)[C@@H]2CCC[C@H]1N2S(=O)(=O)c1cc(Cl)cc(Cl)c1` : what is it?
Result: 7 to 25 nM

Problem: Reported Ki for `C=C[C@H]1CN(Cc2ncccc2F)C(=O)[C@@H]2CCC[C@H]1N2S(=O)(=O)c1cc(Cl)cc(Cl)c1` : what is it?
Result: 11.8 nM

Problem: Reported Ki for `C=C[C@H]1CNC(=O)[C@@H]2CCC[C@H]1N2S(=O)(=O)c1cc(Cl)cc(Cl)c1` : what is it?
Result: 49 to 80 nM

Problem: Reported Ki for `C=C[C@H]1CN(CCNC)C(=O)[C@@H]2CCC[C@H]1N2S(=O)(=O)c1cc(Cl)cc(Cl)c1` : what is it?
Result: 7 to 25 nM

* * *

Subject Of Test: Peptidyl-prolyl cis-trans isomerase FKBP2 (Homo sapiens)
Sequence (P26885 whole entry): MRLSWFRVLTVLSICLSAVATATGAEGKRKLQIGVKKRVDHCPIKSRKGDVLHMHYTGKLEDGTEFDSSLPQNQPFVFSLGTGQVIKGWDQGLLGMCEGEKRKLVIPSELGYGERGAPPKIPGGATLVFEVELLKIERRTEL
Readout Type: pKi
By convention, pKi is the negative base-10 log of a molar concentration.

Problem: Which measured pKi belongs to `COC[C@H]1CN(Cc2ccccn2)C(=O)[C@@H]2CCC[C@H]1N2S(=O)(=O)c1cc(Cl)cc(Cl)c1` , tested on Peptidyl-prolyl cis-trans isomerase FKBP2 (Homo sapiens)?
Result: 7.22
